Reference source: the supplement of paper PMC12783771

Readings of sfGFP reporter fluorescence for the listed variants
B1: library; numbered along this chain (parent)
chain: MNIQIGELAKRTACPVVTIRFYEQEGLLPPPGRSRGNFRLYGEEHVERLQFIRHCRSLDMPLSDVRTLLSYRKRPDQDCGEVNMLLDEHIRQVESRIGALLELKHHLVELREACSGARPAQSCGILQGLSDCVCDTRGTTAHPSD

- Variants of: B1
- measurement_description: sfGFP reporter fluorescence (15 h) (µM FITC); higher = stronger transcriptional activation
- stated_conditions: library round: Round 0; ligand: 1 µM Pb
assay_endpoint: sfGFP reporter fluorescence

>  <residue_change>
P15A

>  <assay_value>
0.0953

$$$$
>  <residue_change>
P30W

>  <assay_value>
0.0722

$$$$
>  <residue_change>
R39V

>  <assay_value>
0.0588

$$$$
>  <residue_change>
D131Q

>  <assay_value>
0.124

$$$$
>  <residue_change>
L85P

>  <assay_value>
0.0581

$$$$
>  <residue_change>
P30A

>  <assay_value>
0.0748

$$$$
>  <residue_change>
E112S

>  <assay_value>
0.108

$$$$
>  <residue_change>
P15L

>  <assay_value>
0.0938

$$$$
>  <residue_change>
P30V

>  <assay_value>
0.0924

$$$$
>  <residue_change>
G36L

>  <assay_value>
0.0621

$$$$
>  <residue_change>
M60L P61N L107C G128M

>  <assay_value>
4.14

$$$$
>  <residue_change>
P15N

>  <assay_value>
0.0859

$$$$
>  <residue_change>
E25A

>  <assay_value>
0.0823

$$$$
